Quick list: inhibition per entry.
assay: M. tuberculosis H37Rv growth inhibitors, H37Rv strain (AID 1626); conditions: stronger effect = higher value, concentration not given here;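 also: bacteria incubated seven days before Alamar blue readout; 0% = bacteria only wells and 100% = bacteria with antibiotic wells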
Out of some 220,000 compounds screened, about 2,000 (0.91%) were called active. Roughly 2% stayed inconclusive and do not appear here. Not all results are given here. Potency and affinity values are given separately.

{"Compound": "COc1ccc(C)cc1N(C(=O)CNC(=O)c1ccco1)C(C(=O)NC1CCCC1)c1cccnc1 (centres undefined)", "inhibition / %": -8.51}
{"Compound": "CSCCC(NC(=O)c1ccccc1)c1nc(-c2ccccc2)no1 (centres undefined)", "inhibition / %": 2.56}
{"Compound": "Cc1cc(C)c2c(n1)sc1c(N3CCN(C)CC3)ncnc12", "inhibition / %": 7.86}
{"Compound": "COC(=O)C1=C(C)NC(C)=C(C(=O)OC)C1C1CC=CCC1 (centres undefined)", "inhibition / %": 5.42}
{"Compound": "O=C(NCc1cccnc1)C(C(=O)c1ccc(F)cc1)n1ccccc1=O (centres undefined)", "inhibition / %": -8.48}
{"Compound": "Nc1cc(=O)[nH]c(SCC(=O)Nc2ccc3c(c2)CCC3)n1", "inhibition / %": 4.78}
{"Compound": "O=C1c2cccc3cc([N+](=O)[O-])cc(c23)C(=O)N1c1ccccc1O", "inhibition / %": 6.45}
{"Compound": "COc1ccc(OCC(O)CN(CCO)CC(O)Cn2ccc3ccccc32)cc1 (centres undefined)", "inhibition / %": 3.01}
{"Compound": "O=C(CSc1nc(O)cc(=O)[nH]1)Nc1ccc2c(c1)CCC2", "inhibition / %": 6.46}
{"Compound": "CCN(CC)Cc1cc(C(=O)O)c(C)o1", "inhibition / %": -8.95}
{"Compound": "Nc1cc2c3c(cccc3c1)C(=O)N(CCN1CCCC1)C2=O", "inhibition / %": 18.6}
{"Compound": "CCCCOC(=O)Nc1ccc(C(N)=O)cc1", "inhibition / %": -2.7}
{"Compound": "COc1ccc(-c2c(=O)n(OCc3ccccc3[N+](=O)[O-])c3ccccc3[n+]2[O-])c(OC)c1", "inhibition / %": 2.69}
{"Compound": "CCOC(=O)NCCOC(=O)Nc1ccc(Cl)cc1", "inhibition / %": 2.79}
{"Compound": "COc1cccc2sc(N(CCCN(C)C)C(=O)c3sc4ccccc4c3Cl)nc12", "inhibition / %": 1.6}
{"Compound": "CCOC(=O)c1ccc(NC(=O)CSc2nc(NC(=O)c3ccccc3)c3c(C)c(C)oc3n2)cc1", "inhibition / %": 9.26}
{"Compound": "CCOC(=O)c1ccc(NC(=O)c2cc(OC)c(OC)c(OC)c2Br)cc1", "inhibition / %": 30.9}
{"Compound": "Cc1ccnc(NC(=O)CCC(=O)N(CC(=O)NCc2ccccc2)Cc2cccs2)c1", "inhibition / %": 6.51}
{"Compound": "OC(CNCC1CCCO1)Cn1c2ccc(Br)cc2c2cc(Br)ccc21 (centres undefined)", "inhibition / %": 43.1}
{"Compound": "O=c1cc(-c2ccc(F)cc2)oc2ccccc12", "inhibition / %": -4.83}
{"Compound": "CC1=CC(C)(C)N(C(=O)CSc2nncn2C)c2ccccc21", "inhibition / %": 4.36}
{"Compound": "CN(C)[C@@H]1C(=O)C(C(N)=O)=C(O)[C@@]2(O)C(=O)C3=C(O)c4c(O)cccc4[C@@](C)(O)[C@H]3[C@H](O)[C@@H]12", "inhibition / %": 11.9}
{"Compound": "CP(=O)(O)CN1CCCCC1", "inhibition / %": -1.04}
{"Compound": "CCOc1ccccc1CNc1ccc(O)cc1", "inhibition / %": -6.88}
{"Compound": "COc1ccc(-c2cc(C(F)(F)F)nc(SCC(=O)NCc3cccs3)n2)cc1OC", "inhibition / %": 0.43}
{"Compound": "C=C1c2cccc(O)c2C(O)=C2C(=O)[C@]3(O)C(O)=C(C(N)=O)C(=O)[C@@H](N(C)C)[C@@H]3[C@@H](O)[C@H]12", "inhibition / %": 1.79}
{"Compound": "CC1CCCC(NC(=O)COC(=O)[C@@H](NC(=O)c2ccco2)C(C)C)C1C (some centres undefined)", "inhibition / %": -2.77}
{"Compound": "Cc1cc(C)nc(N(C#N)CCOc2ccc(Cl)cc2)n1", "inhibition / %": -4.66}
{"Compound": "C[C@H]1c2cccc(O)c2C(O)=C2C(=O)[C@]3(O)C(O)=C(C(N)=O)C(=O)[C@@H](N(C)C)[C@@H]3[C@@H](O)[C@@H]21", "inhibition / %": 63.7}
{"Compound": "Fc1cccc(COc2ccccc2CNc2ccccc2)c1", "inhibition / %": 15.2}
{"Compound": "Cc1cc(C)c2c(n1)sc1c(N3CCN(CCO)CC3)ncnc12", "inhibition / %": 18.8}
{"Compound": "CN(C(=O)CO/N=C/c1ccc(OC(F)F)cc1)C1CCS(=O)(=O)C1 (centres undefined)", "inhibition / %": 8.36}
{"Compound": "O=C(COC(=O)c1ccccc1)Nc1ccc(Cl)cn1", "inhibition / %": -1.7}
{"Compound": "COc1ccc(/C=N/NC(=O)c2ccc(CN3c4cccc5cccc(c45)S3(=O)=O)cc2)cc1", "inhibition / %": 0.99}
{"Compound": "COc1ccccc1NC(=O)CSC1=NCCN1", "inhibition / %": -6.91}
{"Compound": "CCN(CC)c1ccc(NC(=O)c2ccc(Br)o2)cc1", "inhibition / %": -1.94}
{"Compound": "CCC(CC)NC(=O)/C=C/c1ccccc1Cl", "inhibition / %": -14.3}
{"Compound": "Cc1cc(C)n(CC(C)NCc2cn[nH]c2-c2ccc(C)c(C)c2)n1 (centres undefined)", "inhibition / %": 1.18}
{"Compound": "CC(Cc1ccccc1)NC(=O)/C=C/c1ccc(Cl)cc1 (centres undefined)", "inhibition / %": -0.45}
{"Compound": "COc1ccc(C(=O)OCC(=O)Nc2ccc(Cl)cn2)cc1", "inhibition / %": -2.66}
{"Compound": "COc1ccc(C2C(C(=O)Nc3ccc(F)cc3)=C(C)Nc3nc(CCCO)nn32)cc1 (centres undefined)", "inhibition / %": -9.75}
{"Compound": "CCC1CCCCN1CC(=O)Nc1cc(OC)c(OC)cc1C#N (centres undefined)", "inhibition / %": -5.44}
{"Compound": "COc1cccc(NC(=O)Cn2c(CCC(=O)O)ccc2-c2cccs2)c1", "inhibition / %": -0.82}
{"Compound": "Cc1nn(-c2ccccc2)c2sc(C(=O)O)cc12", "inhibition / %": -2.71}

====

Quick list: inhibition per entry.
test: M. tuberculosis H37Rv growth inhibitors, H37Rv strain (AID 1626); conditions: stronger effect = higher value, concentration not given here;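 also: bacteria incubated seven days before Alamar blue readout; 0% = bacteria only wells and 100% = bacteria with antibiotic wells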
Screen size: about 220,000 compounds; about 2,000 (0.91%) were called active. Another 2% or so got no clear call; they are omitted. These entries were drawn from the full list. Results with a measured potency or affinity are listed apart.

{"Compound": "O=C(CN(Cc1ccco1)C(=O)c1ccccc1)Nc1ccc(Cl)c(Cl)c1", "Result Units": "%", "inhibition": 0.53}
{"Compound": "Nc1nc(NC(=O)c2ccccc2)nn1-c1ccccc1", "Result Units": "%", "inhibition": -1.03}
{"Compound": "CCN(CC)C(=O)C1CCCN(Cc2ccc(F)c(F)c2)C1 (centres undefined)", "Result Units": "%", "inhibition": -6.74}
{"Compound": "Cc1cc(C(=O)NC(Cc2ccccc2)C(=O)O)c(C)o1 (centres undefined)", "Result Units": "%", "inhibition": 1.76}
{"Compound": "COCCOc1ccc(C(F)(F)F)cc1NC(=O)c1ccc(C)cc1", "Result Units": "%", "inhibition": 2.93}
{"Compound": "Cc1ccc(-c2nn3c(C)nnc3s2)cc1NC(=O)c1ccc(-c2ccc(Cl)cc2Cl)o1", "Result Units": "%", "inhibition": -7.97}
{"Compound": "CCC(NC(=O)c1ccc([N+](=O)[O-])cc1[N+](=O)[O-])c1ccccc1 (centres undefined)", "Result Units": "%", "inhibition": -5.13}
{"Compound": "Nc1nnnn1CC(=O)N/N=C/c1cc([N+](=O)[O-])ccc1Cl", "Result Units": "%", "inhibition": -0.24}
{"Compound": "O=C(CSc1nnc(Cc2ccccc2)o1)c1ccc(F)cc1", "Result Units": "%", "inhibition": 6.24}
{"Compound": "CCOC(=O)C1(CCOc2ccccc2)CCN(Cc2ccc(-n3cccn3)cc2)CC1", "Result Units": "%", "inhibition": 4.73}
{"Compound": "C=CCNC(=O)C1CC(=O)N(c2ccc(OCC(=O)Nc3ccc(Cl)c(C(F)(F)F)c3)cc2)C1 (centres undefined)", "Result Units": "%", "inhibition": -8.95}
{"Compound": "Cc1ccc(NC(=O)C(C)OC(=O)c2ccc(NS(=O)(=O)c3ccc(F)c(F)c3)cc2)cc1 (centres undefined)", "Result Units": "%", "inhibition": -2.38}
{"Compound": "Cc1ccc(CC(=O)NCc2ccc3c(c2)OCO3)cc1", "Result Units": "%", "inhibition": 23.6}
{"Compound": "CC(NCCN(C)C)C(=O)C12CC3CC(CC(C3)C1)C2 (centres undefined)", "Result Units": "%", "inhibition": 6.21}
{"Compound": "Cc1nc2c(C)cccc2cc1C(=O)N/N=C/c1ccc(C(=O)O)cc1", "Result Units": "%", "inhibition": -1.57}
{"Compound": "O=C(Nc1ccccc1)c1n[nH]c(Cn2cncn2)n1", "Result Units": "%", "inhibition": -3.09}
{"Compound": "O=C(C[n+]1cc(-c2ccccc2)n2c1CCC2)Nc1nc(-c2ccccc2)cs1", "Result Units": "%", "inhibition": 77.8}
{"Compound": "COCCCNC(=S)N1CCC(NC(=O)c2ccco2)CC1", "Result Units": "%", "inhibition": 0.03}
{"Compound": "CC(C(=O)Nc1ccc(C(=O)O)cc1)N1C(=O)c2ccccc2C1=O (centres undefined)", "Result Units": "%", "inhibition": 2.02}
{"Compound": "O=C1c2ccccc2S(=O)(=O)c2cc(C(=O)N3CCN(c4ccc(Cl)cn4)CC3)ccc21", "Result Units": "%", "inhibition": 5.58}
{"Compound": "COc1ccc(N2CCN(C(CNC(=O)c3cccc(Cl)c3)c3cccnc3)CC2)cc1 (centres undefined)", "Result Units": "%", "inhibition": -9.59}
{"Compound": "CC(=O)OC1c2ccccc2C(=O)N1Cc1ccccc1 (centres undefined)", "Result Units": "%", "inhibition": -4.69}
{"Compound": "CCOc1ccc(NC(=O)c2ccccc2OCC(=O)c2ccccc2)cc1", "Result Units": "%", "inhibition": 4}
{"Compound": "O=C(NCc1ccccc1Cl)C1CCCN(c2nc3ccsc3c(=O)s2)C1 (centres undefined)", "Result Units": "%", "inhibition": 1.18}
{"Compound": "CCOc1ccc(NC(=O)Nc2ccc(Br)cn2)cc1", "Result Units": "%", "inhibition": 0.855}
{"Compound": "Cc1ccc(-c2csc(NC(=O)C[n+]3cc(-c4ccccc4)n4c3CCC4)n2)cc1", "Result Units": "%", "inhibition": 75.7}
{"Compound": "Cc1ccc(NC(=O)C[n+]2cc(-c3ccc(C)cc3)n3c2CCC3)cc1", "Result Units": "%", "inhibition": 0.55}
{"Compound": "O=C(Nc1ccccc1)C12CC3CC(C1)CC(n1cnc([N+](=O)[O-])n1)(C3)C2", "Result Units": "%", "inhibition": 3.45}
{"Compound": "CC(C)c1ccc(/C=N/NC(=O)c2nnn(-c3nonc3N)c2CSC2=NCCS2)cc1", "Result Units": "%", "inhibition": -0.79}
{"Compound": "O=C1CCC2c3ccc4ccccc4c3CCN12 (centres undefined)", "Result Units": "%", "inhibition": -9.72}
{"Compound": "O=c1cc(-c2cccs2)oc2ccc(Cl)cc12", "Result Units": "%", "inhibition": -2.31}
{"Compound": "Cc1ccc(NC(=O)CSc2nnc(-c3n[nH]c4ccccc34)n2-c2ccccc2)c(C)c1", "Result Units": "%", "inhibition": 14.9}
{"Compound": "CN(C)S(=O)(=O)c1ccc(NC(=S)NC(=O)c2cccs2)cc1", "Result Units": "%", "inhibition": -8.18}
{"Compound": "CC(=O)N(C1=C(N2CCOCC2)C(=O)c2ccccc2C1=O)c1ccc(C(=O)O)cc1", "Result Units": "%", "inhibition": -1.19}
{"Compound": "COC(=O)c1ccc(CSc2nnc3c(Cl)cc(Cl)cn23)o1", "Result Units": "%", "inhibition": -5.19}
{"Compound": "O=C(O)/C=C/c1ccc(S(=O)(=O)NCc2cccnc2)cc1", "Result Units": "%", "inhibition": -0.59}
{"Compound": "O=C(NCc1ccc(Cl)cc1)C1CCC(CNc2c(N3CCCCC3)c(=O)c2=O)CC1 (centres undefined)", "Result Units": "%", "inhibition": 5.8}
{"Compound": "O=C(CC1SCCNC1=O)Nc1cccc([N+](=O)[O-])c1 (centres undefined)", "Result Units": "%", "inhibition": -1.32}
{"Compound": "Cc1oc(C(C)(C)C)c(CN2CCCC2)c1C(=O)O", "Result Units": "%", "inhibition": 5.71}
{"Compound": "Cc1ccccc1Sc1ncnc2onc(C)c12", "Result Units": "%", "inhibition": -3.01}
{"Compound": "CCC(=O)N(C1=C(NC(C)C)C(=O)c2ccccc2C1=O)C(C)C", "Result Units": "%", "inhibition": 3.87}
{"Compound": "Cc1ccc2cc(CCNC(=O)C(C)(C)C)c(=O)[nH]c2c1", "Result Units": "%", "inhibition": 4.44}
{"Compound": "Cc1ccc(S(=O)(=O)NCCc2nnc3ccc(NCCCOC(C)C)nn23)cc1", "Result Units": "%", "inhibition": 0.94}
{"Compound": "COc1ccc(-n2c(SCC(=O)N/N=C/c3ccccc3OCC(=O)O)nc3ccccc3c2=O)cc1", "Result Units": "%", "inhibition": -3.87}
